Where these numbers come from: patent US7504432B2

biological target: m3 muscarinic acetylcholine receptor (Homo sapiens, UniProt P20309)
Sequence (P20309 whole entry): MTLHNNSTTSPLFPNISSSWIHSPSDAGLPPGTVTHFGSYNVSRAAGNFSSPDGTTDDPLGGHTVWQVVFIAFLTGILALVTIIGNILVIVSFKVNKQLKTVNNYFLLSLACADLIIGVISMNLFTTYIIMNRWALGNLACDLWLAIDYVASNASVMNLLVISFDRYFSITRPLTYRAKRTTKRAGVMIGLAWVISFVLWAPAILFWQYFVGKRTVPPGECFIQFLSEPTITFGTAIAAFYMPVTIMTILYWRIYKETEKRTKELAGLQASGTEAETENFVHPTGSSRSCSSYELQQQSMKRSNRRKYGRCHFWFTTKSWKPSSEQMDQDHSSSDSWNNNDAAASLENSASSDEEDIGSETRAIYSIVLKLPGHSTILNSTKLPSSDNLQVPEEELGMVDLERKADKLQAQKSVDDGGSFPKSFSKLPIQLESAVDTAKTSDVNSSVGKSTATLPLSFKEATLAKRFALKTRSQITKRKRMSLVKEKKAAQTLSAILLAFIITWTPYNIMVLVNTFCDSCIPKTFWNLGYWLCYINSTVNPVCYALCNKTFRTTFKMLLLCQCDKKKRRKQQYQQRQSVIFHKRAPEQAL
metric: Ki
Could you kindly put the unit after your number?

What reported Ki corresponds to N=CN1CCC(CCOC(=O)[C@](O)(c2ccccc2)[C@@H]2CCC(F)(F)C2)CC1 on m3 muscarinic acetylcholine receptor (Homo sapiens, UniProt P20309)?
0.079 nM

* * *

target: m2 muscarinic acetylcholine receptor (Homo sapiens, UniProt P08172)
Sequence (P08172 whole entry): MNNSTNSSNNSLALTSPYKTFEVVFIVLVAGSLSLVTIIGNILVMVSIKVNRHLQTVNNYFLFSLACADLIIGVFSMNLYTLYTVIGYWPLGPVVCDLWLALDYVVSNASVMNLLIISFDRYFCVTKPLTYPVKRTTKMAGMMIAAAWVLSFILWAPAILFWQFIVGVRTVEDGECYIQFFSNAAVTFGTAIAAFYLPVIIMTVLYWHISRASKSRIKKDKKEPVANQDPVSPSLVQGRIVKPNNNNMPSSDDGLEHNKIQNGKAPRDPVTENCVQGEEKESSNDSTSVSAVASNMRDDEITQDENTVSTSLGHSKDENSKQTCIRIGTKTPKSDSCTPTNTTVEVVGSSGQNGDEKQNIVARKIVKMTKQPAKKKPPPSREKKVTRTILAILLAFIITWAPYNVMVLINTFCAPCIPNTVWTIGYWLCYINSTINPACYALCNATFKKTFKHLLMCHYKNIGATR
metric: pKi
# pKi = -log10(concentration in molar units)

What reported pKi corresponds to N=CN1CCC(CCOC(=O)[C@](O)(c2ccccc2)[C@@H]2CCC(F)(F)C2)CC1 [Example 54] on m2 muscarinic acetylcholine receptor (Homo sapiens, UniProt P08172)?
8.32
